# System: A2780
# assay_remarks: Cell viability (CellTiter), concurrent dehydroequol and cisplatin
# Assay type: cell-based
# experimental_context: A2780, co-incubation with 2 uM dehydroequol; read-out: Cisplatin IC50 +2 uM dehydroequol

molecule | target_of_assay | IC50
N.N.[Cl][Pt][Cl] [Cisplatin, cis-diamminedichloroplatinum (II)] | A2780 | < 1 nM

----------
# Test system: CP70
# assay_remarks: Cell viability (CellTiter), concurrent dehydroequol and cisplatin
# Assay type: cell-based

compound | IC50, nM
Oc1ccc(C2=Cc3ccc(O)cc3OC2)cc1 [dehydroequol] | 1500

----------
# System: A2780
# assay_remarks: Cell viability (CellTiter), concurrent dehydroequol and cisplatin
# Format: cell-based
# experimental_context: A2780, single agent; read-out: IC50
pIC50: −log10 of the molar value.

compound | pIC50
N.N.[Cl][Pt][Cl] [Cisplatin, cis-diamminedichloroplatinum (II)] | 5.52

The reported measurements were obtained from patent US7906554B2.
